Assign TGI to each entry below.
Tested on: MALME-3M melanoma
ASSAY_EXPLANATION: NCI tumour cell line growth inhibition, 48 h

IN: Entry COC(=O)C(C(=O)C(=O)Nc1ccccc1C)c1nc2ccc([N+](=O)[O-])cc2[nH]c1=O (stereo unspecified) : reported TGI = ?
OUT: > 100 µM

IN: Item: `CC(=O)ON=C1C=CC(=C(C#N)c2ccccc2)C=C1`
OUT: 20.1 µM

IN: Item: `CCOc1cc2c(cc1O)C(=O)C[C@@H]1[C@@H]2CC[C@]2(C)[C@@H](O)CC[C@@H]12`
OUT: > 9.3 µM

IN: Item: `COC(=O)Nc1nc2ccc(C(=O)c3ccc(F)cc3)cc2[nH]1`
OUT: 26.9 µM

IN: Item: `O=C(Cc1nc2ccccc2o1)C(=O)Nc1ccc(Cl)cc1Cl`
OUT: > 100 µM

IN: Item: `COc1ccc(-c2cc(=O)c3cc(O)ccc3o2)c(OC)c1OC`
OUT: > 100 µM

====

Test system: BT-549 breast
ASSAY_EXPLANATION: NCI tumour cell line growth inhibition, 48 h
Assign GI50 to each entry below.

IN: Find the measured GI50: item `O=C(/C=C/C=C/c1ccc2c(c1)OCO2)N/N=C\c1ccc(O)cc1O` , target or system BT-549 breast.
OUT: 2250 nM

IN: Item: `CN(C)C1CN(C(=O)c2cc(-c3ccc4ncnc(N5CCc6cc(F)c(Cl)cc65)c4c3)cnc2N)C1`
OUT: 436 nM

IN: Item: CO/C(=C1/NC(=O)C(Cc2ccc(O)c(Br)c2)N(C)C(=O)C(C)NC(=O)CCC/C=C(\C)CCC(C)OC1=O)c1ccccc1 (stereo unspecified)
OUT: 36.8 nM

IN: Item: `COC(=O)[C@]12CC[C@@H](C)[C@H](C)[C@@H]1C1=CC[C@@H]3[C@@](C)(CC#N)C4=C(C[C@@]3(C)[C@]1(C)CC2)OC[C@]4(C)C=O`
OUT: 4080 nM

IN: Item: `COCCn1c2c([n+](Cc3cnccn3)c1C)C(=O)c1ccccc1C2=O`
OUT: 26.4 nM

IN: Item: `C=CC(=O)N1CCC[C@@H](n2nc(-c3ccc(Oc4ccccc4)cc3)c3c(N)ncnc32)C1`
OUT: > 7690 nM

IN: Item: `COC(=O)c1c2c(c(C)[n+]([O-])c1C)C(=O)C(NCc1ccc(O)cc1)=CC2=O`
OUT: 1430 nM

IN: Item: `C#CCNC(=O)CC[C@@H](C)[C@H]1CC[C@H]2[C@@H]3CC[C@@H]4CC(=O)CC[C@]4(C)[C@H]3CC[C@]12C`
OUT: 13700 nM

IN: Item: `O=C(Nc1cccc(-n2cc(-c3ccncc3)c(-c3ccc(Cl)c(O)c3)n2)c1)Nc1ccc(Cl)c(Cl)c1`
OUT: 1700 nM

IN: Item: `COc1cc(C)[nH]c(=O)c1CNC(=O)c1c(C)n([C@H](C)C2CCN(CC(F)(F)F)CC2)c2ccccc12`
OUT: 33600 nM

IN: Item: O=C1OCC2=C1C(c1cccc(Cl)c1)c1cc3c(cc1N2CCO)CCC3 (stereo unspecified)
OUT: 166 nM

====

Tested on: EKVX NSCLC
ASSAY_EXPLANATION: NCI tumour cell line growth inhibition, 48 h
Assign TGI to each entry below.

IN: Entry `COc1ccc(-c2c3c(nc4nc(SCC(=O)c5ccc(Br)cc5)nc(N)c24)CCCC3)cc1OC` : reported TGI = ?
OUT: > 100 µM

IN: Item: Nc1n[nH]c2ccc([C@@H]3Nc4ccc5cn[nH]c5c4[C@H]4C5CCC(C5)[C@@H]34)cc12 (stereo not given in full)
OUT: > 100 µM

IN: Item: `CCOC(=O)c1cc([N+](=O)[O-])c(Sc2ncnc3nc[nH]c23)c([N+](=O)[O-])c1`
OUT: 15.4 µM

IN: Item: `CCCCCCCCCCCCc1ccsc1-c1ccc(-c2ccc(-c3sccc3CCCCCCCCCCCC)s2)s1`
OUT: > 100 µM

IN: Item: `COC(=O)Nc1nc2ccc(C(=O)c3ccc(F)cc3)cc2[nH]1`
OUT: > 100 µM

IN: Item: O=C(CC(=O)N1N=C(N(c2ccccc2)c2ccccc2)CC1c1ccccc1)Nc1cccc(Cl)c1 (stereo not given)
OUT: > 100 µM

IN: Item: `C/C(=N\O)c1cccc(Nc2c3ccccc3nc3occc23)c1`
OUT: 50.6 µM

IN: Item: `C=CC(=O)N1CCC[C@@H](n2nc(-c3ccc(Oc4ccccc4)cc3)c3c(N)ncnc32)C1`
OUT: > 10 µM

IN: Item: Cc1ccc(NC(=O)CC2SC(=Nc3ccc(Cl)cc3)NC2=O)cc1C (stereo not given)
OUT: 31.4 µM

IN: Item: Cc1cc(Cl)cc2c1NC(=O)C2(O)C(C(=O)c1ccccc1)c1ccccc1 (stereo not given)
OUT: > 100 µM

IN: Item: CC1CC(=O)Nc2ccccc2N1C(=O)C1CC1 (stereo not given)
OUT: > 100 µM

IN: Item: COC(=O)C1=CCC2c3[nH]c4ccccc4c3CCN2C1 (stereo not given)
OUT: > 354 µM

IN: Item: `Nc1cc(N)c2nc(NCCc3ccc(Cl)c(Cl)c3)cnc2c1`
OUT: 24.6 µM

IN: Item: CCN(/N=C1\CC2C=CCN(C2)C(=O)Cc2c1[nH]c1ccccc21)S(=O)(=O)c1ccc(C)cc1 (stereo not given)
OUT: > 100 µM

IN: Item: `CC1(C)[C@H]2Cc3cc4nc5ccccn5c4cc3[C@@H]1C2`
OUT: 32.7 µM

====

System: SK-MEL-5 melanoma
ASSAY_EXPLANATION: NCI tumour cell line growth inhibition, 48 h
TEST_READOUT: GI50

IN: Entry `COc1cc(C(=O)NN=C2c3ccccc3-c3ccccc32)cc(OC)c1OC` : reported GI50 = ?
OUT: 2.65 µM

IN: Item: `Fc1ccc(Nc2nc3nonc3nc2Nc2ccc(I)cc2)cc1`
OUT: 0.147 µM

IN: Item: `Nc1ncnc2c1ccn2-c1cccc(NC(=O)c2ccc(N3CCOCC3)c(C(F)(F)F)c2)c1`
OUT: 2.56 µM

IN: Item: `CCCCCCCCCCCCCCCCCCOc1ccccc1COP(=O)(O)OOCC[N+](C)(C)C`
OUT: 0.813 µM

IN: Item: `COc1c(B(O)O)cccc1-c1nc2c(F)cc3n[nH]c(C)c3c2c2c1CCCC2`
OUT: 0.932 µM

IN: Item: CCC(C)C1NC(=O)C(NC(=O)C(CC(C)C)N(C)C(=O)[C@@H]2CC(O)CN2C(=O)[C@H](C)O)C(C)OC(=O)[C@H](Cc2ccc(OC)cc2)N(C)C(=O)[C@@H]2CCCN2C(=O)[C@H](CC(C)C)NC(=O)C(C)C(=O)[C@H](C(C)C)OC(=O)CC1O (stereo partly specified)
OUT: < 0.01 µM

====

Assign GI50 to each entry below.
Test system: HS 578T breast
ASSAY_EXPLANATION: NCI tumour cell line growth inhibition, 48 h

IN: Find the measured GI50: item `CC[C@@]1(O)C(=O)OCc2c1cc1n(c2=O)Cc2c-1nc1cc(F)c(C)c3c1c2[C@@H](NC(=O)CO)CC3` , target or system HS 578T breast.
OUT: 1250 nM

IN: Item: `CCCCCCCCCCCCCCCCCCOc1ccccc1COP(=O)(O)OOCC[N+](C)(C)C`
OUT: 1180 nM

IN: Item: `Nc1ncnc2c1ccn2-c1cccc(NC(=O)c2ccc(N3CCOCC3)c(C(F)(F)F)c2)c1`
OUT: 1830 nM

IN: Item: `O=C(/C=C/C=C/c1ccc2c(c1)OCO2)N/N=C\c1ccc(O)cc1O`
OUT: 2290 nM

====

Tested on: RXF 393 renal
ASSAY_EXPLANATION: NCI tumour cell line growth inhibition, 48 h
Where TGI equals or exceeds 60 µM, the correct label is Fulfilled; where it does not, the label is Not fulfilled.

IN: Please indicate if the recorded TGI for `COc1ccc(-c2cc(=O)c3cc(O)ccc3o2)c(OC)c1OC` meets or exceeds 60 µM.
OUT: Fulfilled

IN: Item: CCOC(=O)C(=O)C(C#N)c1ccc(Cl)cc1 (configuration not stated)
OUT: Fulfilled

IN: Item: `COc1cc(N(CCCl)CCCl)ccc1/C=N\NC(=O)c1cccnc1`
OUT: Fulfilled

IN: Item: CC1(C)C(CC(=O)O)CCCC1CC(=O)O (configuration not stated)
OUT: Fulfilled

IN: Item: CC[C@@H](C)/C=C(C)/C=C/C(=O)c1c(O)c(-c2ccc(O)cc2)cn(OC2CC(=O)CCC(C)OC(=O)CC2O)c1=O (some centres not stated)
OUT: Not fulfilled

IN: Item: Nc1nc(N)c2c(n1)CCC(S(=O)(=O)c1ccc3ccccc3c1)C2 (configuration not stated)
OUT: Not fulfilled

IN: Item: `COC(=O)C1Cc2cc3c(cc2C1)CCC3`
OUT: Fulfilled

IN: Item: `CC(C)c1c(O[Si](C(C)C)(C(C)C)C(C)C)cc2c(c1O)CC[C@H]1C(C)(C)CCC[C@]21C`
OUT: Fulfilled

IN: Item: `CCCCCCCCCCCCCCCCCCOc1ccccc1COP(=O)(O)OOCC[N+](C)(C)C`
OUT: Not fulfilled

IN: Item: `Cn1c(=O)n(C2(C)CSC2)c2ccccc21`
OUT: Fulfilled
